Parameter Kd: see the listing below.
target: GP[change] (Zaire ebolavirus | , UniProt Q05320); test: BLI

binder	measured.metric	observed.result
c2G4 (antibody, V domains shown) VH: EVQLQESGGGLMQPGGSMKLSCVASGFTFSNYWMNWVRQSPEKGLEWVAEIRLKSNNYATHYAESVKGRFTISRDDSKRSVYLQMNTLRAEDTGIYYCTRGNGNYRAMDYWGQGTSVTVS VL: DIQMTQSPASLSVSVGETVSITCRASENIYSSLAWYQQKQGKSPQLLVYSATILADGVPSRFSGSGSGTQYSLKINSLQSEDFGTYYCQHFWGTPYTFGGGTKLEIK	Kd	< 1 pM
ADI-15878 (antibody, V domains shown) VH: QVQLVQSGVTLVQPGGSLRVSCAASGFTFSSYAMSWVRQAPGKGLEWVSAISGLGGSTYYADSVKGRFTISRDNSKNTLYLQMNSLRAEDTAVYYCAKDHRVWAAGYHFDYWGQGALVTVSS VL: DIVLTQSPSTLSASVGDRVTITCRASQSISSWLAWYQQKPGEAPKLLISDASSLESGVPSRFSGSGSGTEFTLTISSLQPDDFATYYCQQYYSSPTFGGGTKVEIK	Kd	< 1 pM

Query string: Kd for mAb100 (antibody, V domains shown) VH: QVQLQESGPGLVKPSDTLSLTCTVSGGSLSSFYWSWIRQPPGKGLEWIGYIYYSGSPNYSPSLESRVTMSVDTTRNQISLKLDSVTAADTAVYYCVRASRSYYWGSYRPTAFDSWGQGTLVTVSS VL: SYELTQPLSVSVSPGQTAIFTCSGDNLGDKYVCWFQQRPGQSPMLLIYQDNKRPSGIPERFSGSNSGNTATLTISGTQSTDEADYYCQTWDSTVVFGGGTKLTVL ?
Result string: < 1 pM

The measurements presented in this section are drawn from paper PMC8113551.
